Biological target: human cyclin E-CDK2 (Homo sapiens, UniProt P24941)
Test: CDK2 HTRF kinase assay (Ki measurement)
Format: biochemical
Details: HTRF assay, ATP at 3x Km; read-out: Ki CDK2
Quantity Kind: Ki (nM)

Example results:
{"Compound": "CS(=O)(=O)N1CCC(Nc2ncc(C(=S)c3c(F)c(F)cc4ccoc34)c(N)n2)CC1", "Target System": "human cyclin E-CDK2 (Homo sapiens, UniProt P24941)", "Ki (nM)": 0.1}
{"Compound": "CS(=O)(=O)N1CCC(Nc2ncc(C(=S)c3c(F)c(F)cc4ncoc34)c(N)n2)CC1", "Target System": "human cyclin E-CDK2 (Homo sapiens, UniProt P24941)", "Ki (nM)": 16}
{"Compound": "COc1ccc(F)c(F)c1C(=S)c1cnc(N[C@H]2CC[C@H](N(C)S(C)(=O)=O)CC2)nc1N", "Target System": "human cyclin E-CDK2 (Homo sapiens, UniProt P24941)", "Ki (nM)": 0.27}
{"Compound": "CS(=O)(=O)N1CCC(Nc2ncc(C(=S)c3ccccc3)c(N)n2)CC1", "Target System": "human cyclin E-CDK2 (Homo sapiens, UniProt P24941)", "Ki (nM)": 10}
{"Compound": "COc1ccc(F)c(F)c1C(=S)c1cnc(N[C@H]2CC[C@H](NS(C)(=O)=O)CC2)nc1N", "Target System": "human cyclin E-CDK2 (Homo sapiens, UniProt P24941)", "Ki (nM)": 0.18}

a: COc1ccc(F)cc1C(=S)c1cnc(NCCCNS(C)(=O)=O)nc1N
b: COc1ccc(F)c(F)c1C(=S)c1cnc(Nc2ccc(S(N)(=O)=O)cc2)nc1N
Lookup: Response body: label of entry with the larger Ki; valid values a , b . In your reply, give the label of the chosen option.
Found: a

A: CS(=O)(=O)N1CCC(Nc2ncc(C(=S)c3cccs3)c(N)n2)CC1
B: COc1ccc(F)cc1C(=S)c1cnc(NC2CCN(C(=O)OC(C)(C)C)CC2)nc1N
Lookup: // pick min by Ki: A , B In your reply, give the label of the chosen option.
Found: A
